All figures here come from ChEMBL document CHEMBL1201862.

Kindly supply the reported EC50 values for the records listed here.
- procedure-text: Luminescence Cell-Based Dose Response HTS to Identify Inhibitors of 5'UTR Stem-Loop Driven Prion Protein mRNA Translation in H4 Neuroglioblastoma Cells. [Related pubchem assays: 1827 (Project Summary), 1813 (Primary HTS)]
- Assay type: functional
The source made the active and inactive calls.

Prompt: Param item = O=C(COc1ccccc1-c1ccccc1)N/N=C/c1cccc2ccccc12 ; retrieve measured EC50.
Completion: > 120 µM (not active)

Prompt: O=[N+]([O-])c1c(Nc2ccccc2O)cc(N2CCOCC2)c2nonc12 , same question.
Completion: 30.5 µM (active)

Prompt: Next record, please: Cc1ccc(NC(=O)C2(NC(=O)c3cccc(N4C(=O)CSC4c4ccccc4)c3)CCCCC2)cc1 (centres undefined)
Completion: > 120 µM (not active)

Prompt: One more compound: COc1ccc(NC(=O)/C(Cl)=C(/Cl)[S+]([O-])Cc2ccccc2)cn1 (centres undefined)
Completion: 0.998 µM (active)

Prompt: # iterate: O=C(O)CSCC(=O)Nc1ccc(C2CCCCC2)cc1
Completion: 0.395 µM (active)

Prompt: Here is the next compound: Fc1ccc(C(OCCN2CCN(CCCc3ccccc3)CC2)c2ccc(F)cc2)cc1
Completion: > 120 µM (not active)

Prompt: Would you kindly repeat that for COc1ccc(CNC(=O)c2coc(=O)c3ccccc23)c(OC)c1 ?
Completion: > 120 µM (not active)

Prompt: What about CCOc1cc(CNc2ccc3c(c2)OCCO3)cc(Br)c1OC ?
Completion: 10.7 µM (active)

Prompt: Check CN(C)c1oc(-c2ccccc2Cl)nc1C#N too.
Completion: 19.6 µM (active)

====

- System: P388/ADR
- procedure-text: cells
- Assay type: functional
- condition-set: Mus musculus
Calls of active or inactive are those of the source.
Select the correct class. Options are active, inactive and nothing else.

Prompt: Please indicate how the test categorized O=C(O)c1ccc(Nc2c3ccccc3nc3ccccc23)cc1 .
Completion: inactive

Prompt: And then CCOC(=O)c1c[nH]c2cc3c(cc2c1=O)CCS3(=O)=O.CCOC(=O)c1c[nH]c2ccc3c(c2c1=O)S(=O)(=O)CC3 , what is it?
Completion: inactive

Prompt: Then COc1ccc2[nH]c3c(C)c4ccncc4c(C)c3c2c1 ?
Completion: active

Prompt: Same for Cc1ccc(C#CS(=O)(=O)C(F)(F)F)cc1
Completion: inactive

====

- target-under-test: Metabotropic glutamate receptor 3 (Rattus norvegicus)
- Sequence (P31422 whole entry): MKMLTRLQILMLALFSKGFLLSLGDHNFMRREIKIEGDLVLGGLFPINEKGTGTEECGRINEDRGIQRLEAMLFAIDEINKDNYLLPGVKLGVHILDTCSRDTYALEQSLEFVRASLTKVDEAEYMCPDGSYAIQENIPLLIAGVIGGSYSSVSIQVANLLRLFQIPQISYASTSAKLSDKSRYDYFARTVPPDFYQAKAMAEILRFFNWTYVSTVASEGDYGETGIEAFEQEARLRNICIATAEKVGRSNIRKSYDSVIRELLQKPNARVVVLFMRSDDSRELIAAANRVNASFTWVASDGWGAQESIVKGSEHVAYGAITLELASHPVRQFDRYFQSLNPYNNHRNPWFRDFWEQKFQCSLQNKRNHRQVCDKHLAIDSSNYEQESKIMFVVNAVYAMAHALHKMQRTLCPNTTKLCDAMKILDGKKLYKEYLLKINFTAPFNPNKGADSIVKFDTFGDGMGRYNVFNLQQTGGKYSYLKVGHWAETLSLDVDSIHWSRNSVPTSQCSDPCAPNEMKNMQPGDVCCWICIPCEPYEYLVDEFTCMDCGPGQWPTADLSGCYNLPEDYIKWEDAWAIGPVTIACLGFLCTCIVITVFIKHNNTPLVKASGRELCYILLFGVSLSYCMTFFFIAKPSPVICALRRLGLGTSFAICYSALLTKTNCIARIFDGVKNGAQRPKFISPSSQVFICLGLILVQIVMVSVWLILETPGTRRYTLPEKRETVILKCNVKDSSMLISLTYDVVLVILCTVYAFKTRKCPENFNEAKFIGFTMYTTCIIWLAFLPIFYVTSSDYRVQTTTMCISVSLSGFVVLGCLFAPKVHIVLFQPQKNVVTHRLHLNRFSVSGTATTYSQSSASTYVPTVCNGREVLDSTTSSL
- procedure-text: mGlu3 negative allosteric modulator potency, dose response, HEK/GIRK cells, thallium flux, rat (AID 651839)
- Format: functional
parameter-measured: pIC50
On this scale, pIC50 is minus log10 of a concentration expressed in M (mol/L).

Prompt: Please tell me: pIC50 of COc1ccc(C#Cc2ccc(C(=O)N3CCC[C@@H](CO)C3)cc2)c(F)c1 , system Metabotropic glutamate receptor 3 (Rattus norvegicus)?
Completion: 5.31

====

Record form. Attribute: EC50. Fill in for each entry.
- target-under-test: Short transient receptor potential channel 4 (Mus musculus)
- Sequence (Q9QUQ5 whole entry): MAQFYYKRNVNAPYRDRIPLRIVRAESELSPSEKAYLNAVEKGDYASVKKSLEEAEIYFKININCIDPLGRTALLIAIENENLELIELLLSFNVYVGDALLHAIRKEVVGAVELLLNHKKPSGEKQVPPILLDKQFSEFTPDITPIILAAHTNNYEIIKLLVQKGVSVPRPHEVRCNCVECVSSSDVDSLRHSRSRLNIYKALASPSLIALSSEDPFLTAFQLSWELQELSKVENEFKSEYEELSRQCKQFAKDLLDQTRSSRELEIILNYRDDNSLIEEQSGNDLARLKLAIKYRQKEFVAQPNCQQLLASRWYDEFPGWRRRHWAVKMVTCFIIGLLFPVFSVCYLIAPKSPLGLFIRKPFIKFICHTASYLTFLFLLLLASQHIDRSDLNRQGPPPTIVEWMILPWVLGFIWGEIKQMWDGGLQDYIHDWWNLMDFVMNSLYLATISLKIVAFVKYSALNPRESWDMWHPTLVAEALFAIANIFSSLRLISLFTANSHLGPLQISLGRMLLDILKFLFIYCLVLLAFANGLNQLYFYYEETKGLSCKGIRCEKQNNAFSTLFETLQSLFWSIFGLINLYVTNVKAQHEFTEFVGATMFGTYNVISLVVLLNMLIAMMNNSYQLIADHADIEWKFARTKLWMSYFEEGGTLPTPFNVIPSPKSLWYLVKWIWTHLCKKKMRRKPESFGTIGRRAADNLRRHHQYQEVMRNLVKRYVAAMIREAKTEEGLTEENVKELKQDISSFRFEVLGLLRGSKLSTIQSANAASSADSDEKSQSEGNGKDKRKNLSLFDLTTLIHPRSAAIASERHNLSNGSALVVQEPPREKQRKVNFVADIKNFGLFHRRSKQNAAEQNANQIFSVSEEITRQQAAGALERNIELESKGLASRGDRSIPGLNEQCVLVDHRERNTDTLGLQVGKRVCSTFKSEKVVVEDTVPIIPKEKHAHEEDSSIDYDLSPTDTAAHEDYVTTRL
- procedure-text: mouse TRPC4 channel inhibitors, dose response, cell-based, HEK293 TRPC4/mu-opioid, Fluo-4 calcium (AID 434942);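 note: potency of inhibitors blocking the TRPC4 calcium response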
- Assay type: functional
Calls of active or inactive are those of the source.

Prompt: Any idea what EC50 was measured for OCCNc1nc(NCc2ccccc2)c2ccccc2n1 ?
Completion: 3.35 µM (active)

Prompt: Here is the next compound: Oc1c(Br)cc(Br)cc1/C=N/c1ccc2[nH]ncc2c1
Completion: 4.22 µM (active)

Prompt: Okay, and CCCCNCc1cc(Cl)c(OCCC)c(OCC)c1 ?
Completion: 2.37 µM (active)

Prompt: Please answer likewise for CC(NCc1cc(Br)ccc1OCC(=O)NCc1ccccc1)c1ccccc1 (stereo not given)
Completion: 1.06 µM (active)

Prompt: Record: NC(=O)c1nsc(C(=O)N(Cc2ccc(F)cc2)C(C(=O)NCC2CCCO2)c2ccc(O)cc2)c1N (stereo not given)
Completion: 2.37 µM (active)

Prompt: What do we get for CC(C)=CCCC(C)CN1CCC(n2nccc2NC(=O)C2CCCC2)CC1 (stereo not given) ?
Completion: 5.31 µM (active)

Prompt: Now give it for Cc1cc2cc(C#N)c(NCCN=C(S)NCCCN3CCOCC3)nc2cc1C too.
Completion: 5.31 µM (active)

Prompt: Also need CCCCN(CCCC)C(=N)Nc1nc(C)cc(C)n1 , thanks.
Completion: 3.76 µM (active)

Prompt: Same question for Fc1ccc(-n2cc(CNCCc3ccncc3)c(-c3ccccc3Cl)n2)cc1 please.
Completion: 3.35 µM (active)

Prompt: Okay, and CC(Oc1ccc(Cl)cc1Cl)c1nc(-c2ccccn2)no1 (stereo not given) ?
Completion: 1.88 µM (active)

====

- target-under-test: Microphthalmia-associated transcription factor (Homo sapiens)
- Sequence (O75030 whole entry): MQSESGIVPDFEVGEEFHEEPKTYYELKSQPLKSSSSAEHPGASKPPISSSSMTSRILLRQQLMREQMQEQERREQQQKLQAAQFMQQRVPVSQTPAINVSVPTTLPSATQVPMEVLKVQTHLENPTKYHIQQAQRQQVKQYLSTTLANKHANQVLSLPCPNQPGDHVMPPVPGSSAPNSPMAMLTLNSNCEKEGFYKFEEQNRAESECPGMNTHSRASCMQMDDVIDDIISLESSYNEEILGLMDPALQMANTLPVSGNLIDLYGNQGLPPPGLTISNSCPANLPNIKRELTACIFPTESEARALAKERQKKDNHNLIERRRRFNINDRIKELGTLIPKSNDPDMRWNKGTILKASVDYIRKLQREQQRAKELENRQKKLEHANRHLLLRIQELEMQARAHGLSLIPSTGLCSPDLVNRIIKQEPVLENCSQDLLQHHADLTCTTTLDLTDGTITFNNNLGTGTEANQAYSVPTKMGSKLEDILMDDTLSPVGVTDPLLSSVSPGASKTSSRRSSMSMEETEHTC
- procedure-text: TRPM1 promoter luciferase signal decrease, dose response, MITF inhibitor project, cell-based, SK-MEL-5, cherry-picked, set 3 (AID 493073);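 note: SK-MEL-5 melanoma cells with luciferase driven by the MITF target TRPM1 promoter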
- Format: functional
Activity calls are given as the source filed them.
parameter-measured: AC50

Prompt: For the compound shown here, Cc1cccc(N2C(=O)NC(=O)/C(=C\C=C\c3ccco3)C2=O)c1 , give the reported AC50.
Completion: 5.75 µM (active)

Prompt: Can you handle N#C/C(=C\C=C\c1ccccc1[N+](=O)[O-])C(=O)NCc1ccccc1 next?
Completion: 14.7 µM (active)

Prompt: Ok, now COc1ccc(C)cc1Nc1nc(N)c2cc(OC)c(OC)cc2n1
Completion: 14.2 µM (active)

Prompt: What about this compound? COc1ccc2nc(N3CCN(C(=O)c4ccc([N+](=O)[O-])o4)CC3)sc2c1
Completion: 5.81 µM (active)

Prompt: Follow-up entry: CC(=O)Nc1nc(C)c(-c2csc(Nc3cccc(C(C)=O)c3)n2)s1
Completion: 8.38 µM (active)

Prompt: Ok, now O=C(O)CSCC(=O)Nc1ccc(C2CCCCC2)cc1
Completion: 2.12 µM (active)

Prompt: Consider next the compound O=C1C(Cl)=C(Nc2ccccc2)C(=O)c2ccccc21 in the same way.
Completion: 2.88 µM (active)

Prompt: Same again, this time with N#C/C(=C(/O)c1ccc([N+](=O)[O-])o1)c1nc2ccccc2[nH]1
Completion: 3.8 µM (active)

Prompt: # repeat for O=C1c2ccccc2S(=O)(=O)N1Cc1nc2ccccc2s1
Completion: 2.7 µM (active)

====

- target-under-test: Orexin/Hypocretin receptor type 1 (Homo sapiens)
- Sequence (O43613 whole entry): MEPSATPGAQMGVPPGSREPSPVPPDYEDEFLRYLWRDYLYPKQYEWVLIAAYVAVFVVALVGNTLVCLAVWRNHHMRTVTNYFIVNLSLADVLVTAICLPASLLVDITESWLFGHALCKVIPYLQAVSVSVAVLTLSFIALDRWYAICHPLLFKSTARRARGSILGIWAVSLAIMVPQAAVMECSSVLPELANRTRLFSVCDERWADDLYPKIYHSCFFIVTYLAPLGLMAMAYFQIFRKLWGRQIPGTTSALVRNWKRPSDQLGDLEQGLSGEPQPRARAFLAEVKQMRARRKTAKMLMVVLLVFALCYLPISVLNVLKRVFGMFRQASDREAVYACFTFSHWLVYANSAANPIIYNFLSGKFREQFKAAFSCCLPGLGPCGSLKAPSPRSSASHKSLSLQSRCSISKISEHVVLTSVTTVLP
- procedure-text: Fluorescence-based cell-based high throughput dose response assay for antagonists of the orexin 1 receptor (OX1R; HCRTR1). [Related pubchem assays (depositor defined):AID434989, AID435008, AID463079, AID485270, AID492963, AID492964, AID492965, AID493232, AID504717, AID504718]
- Format: functional
The source made the active and inactive calls.
# valid calls are YES (active), NO (inactive); nothing else

Prompt: # lookup: test call for Cc1cccc(NC(=O)NNC(=O)c2cc(-c3ccccc3Cl)nc3ccccc23)c1
Completion: NO

Prompt: Then what about the molecule C=CCn1c(SCC(=O)Nc2cc3oc4ccccc4c3cc2OC)nnc1-c1cnccn1 ?
Completion: YES

Prompt: Thanks! And CCn1c2ccccc2c2cc(NC(=O)c3cccc(OC)c3OC)ccc21 ?
Completion: YES

Prompt: Further, for CSc1cccc(NC(=O)C2CCCN(S(=O)(=O)c3ccc(F)cc3)C2)c1 (centres undefined) ?
Completion: NO
